# System: M. tuberculosis H37Rv growth inhibition, 7H9 media
# assay_remarks: M. tuberculosis growth inhibition, HTS (AID 449762);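 further: bacterial growth assessed after seven days of incubation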
# particulars: measured here: IC90 growth inhibition
Records with an inconclusive call do not appear.
// reported IC90 for each item listed

For orientation, consider the following solved cases.
- Cc1cc(-c2n[nH]c(=S)n2/N=C/C(Br)=C/c2ccccc2)n[nH]1: 5.63 µM
- CCOC(=O)c1cc(/C(C)=N/OC(=O)c2ccc(C(C)(C)C)cc2)on1: 24.8 µM
- Cn1c(CNc2nc(-c3ccccc3)cs2)nnc1SCC(=O)OC1CCCCC1: 24.2 µM

Ask: Which IC90 reading was recorded for the molecule CCOC(=O)c1sc(C)c2c(=O)n(CC(=O)c3ccc(Br)cc3)nnc12 ?
Result: > 100 µM

Ask: Which IC90 reading was recorded for the molecule CCOC(=O)CSc1nnc(SCCN2C(=O)c3ccccc3C2=O)s1 ?
Result: 30 µM

----------
# Test system: M. tuberculosis H37Rv growth inhibition, 7H9 media
# assay_remarks: M. tuberculosis growth inhibition, HTS (AID 449762);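 further: bacterial growth assessed after seven days of incubation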
# particulars: measured here: IC90 growth inhibition
Records with an inconclusive call do not appear.
quantity_measured: IC90 (µM)
Report the figure in µM without appending any unit label.

For orientation, consider the following solved cases.
- CCOC(=O)CSc1nnc(-c2ccc(S(=O)(=O)NCc3cccs3)cc2)o1: 4.55
- COc1ccc(OC)c(C(=O)NC(CC(N)=O)c2ccc(NCc3ccc(F)c(F)c3)c([N+](=O)[O-])c2)c1 (stereo not given): 23.6
- CN1CCN(c2cc(-c3ccccc3)nc3cc(-c4ccc(F)cc4)nn23)CC1: 15.7
- CCOC(=O)c1nnc(-c2ccccc2)nc1Sc1ccccc1Cl: 49.2
- CN(C)N=Nc1nc[nH]c1C(N)=O: 6.76

Ask: Which IC90 reading was recorded for the compound COc1ccc(NC(=O)c2oc3ccc(S(=O)(=O)N4CCOCC4)cc3c2C)cc1 ?
Result: 7.38

Ask: Which IC90 reading was recorded for the compound CC1CCCC(C)N1C(=O)COC(=O)c1cc(-c2cccs2)nn1-c1ccccc1 (stereo not given) ?
Result: 55.6

Ask: Which IC90 reading was recorded for the compound COc1ccc(C[C@H](N)C(=O)N[C@H]2[C@@H](O)[C@H](n3cnc4c(N(C)C)ncnc43)O[C@@H]2CO)cc1 ?
Result: 3.54

----------
# Test system: M. tuberculosis H37Rv growth inhibition, 7H9 media
# assay_remarks: M. tuberculosis growth inhibition, HTS (AID 449762);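 further: bacterial growth assessed after seven days of incubation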
# particulars: measured here: IC90 growth inhibition
Results filed as inconclusive are left out.
// reported IC90 for each item listed
Report the figure in µM without appending any unit label.

- Nc1ccc(C(=O)OCCCc2nc3cc4ccccc4cc3[nH]2)cc1: 51.7

Ask: Which IC90 reading was recorded for the compound CCOC(=O)CN[C@H]1CCC2C3CC=C4C[C@@H](O)CC[C@]4(C)C3CC[C@@]21C (stereo not given in full) ?
Result: 8.37

Ask: Which IC90 reading was recorded for the compound Cc1ccc(S(=O)(=O)NNC(=O)c2cc([N+](=O)[O-])c(C)c([N+](=O)[O-])c2)cc1 ?
Result: 12.5

Ask: Which IC90 reading was recorded for the compound CN1C(=S)SC(N(O)C(=O)Nc2ccc(Cl)c(Cl)c2)C1(C)C (stereo not given) ?
Result: 25.6

Ask: Which IC90 reading was recorded for the compound CCn1c2ccccc2c2cc(CN3CCN(Cc4cc(OC)ccc4O)CC3)ccc21 ?
Result: 23.5

Ask: Which IC90 reading was recorded for the compound CC(C)(C)c1ccc(-c2nc(-c3ccncc3)no2)cc1 ?
Result: 33.6

Each recorded value in this set is attributed to PubChem BioAssay AID449762.
